Test: Toxicity test, LD50 in mice
Conditions: mouse, in vivo; mice, intravenous injection
Measurement Name: LD50 (mg/kg)
// return numeric value only (unit: mg/kg, not printed)

Which LD50 is listed for CC(=O)OCC1=C(C(=O)O)N2C(=O)[C@@H](NC(=O)CSC(=NC(C)C)NC(C)C)[C@H]2SC1.N [Example 1] ?
1100
